Target of assay: T1, CGH-1_(248–420) wild type (CGH-1 RecA2 domain) (C. elegans, UniProt Q95YF3 248-420)
T1 construct: Cloned into NdeI/XhoI of a modified pET-28a in which the thrombin cleavage site was removed; also called CGH-1_248-420^WT; source: E. coli Gold (DE3), purified (Ni-chelating resin, SEC Superdex 75)
T1 sequence (looked up): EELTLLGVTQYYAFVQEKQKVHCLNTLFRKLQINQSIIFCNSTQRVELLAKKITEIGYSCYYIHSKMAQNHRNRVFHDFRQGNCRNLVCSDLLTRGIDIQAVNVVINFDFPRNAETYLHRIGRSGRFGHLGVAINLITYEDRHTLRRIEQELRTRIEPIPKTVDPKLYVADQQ
Protocol: ITC; ligand (peptide or CAR-1 fragment, 0.5 mM) injected into CGH-1_(248-420) or mutant (0.05 mM) in the cell; 20 °C; Buffer B (20 mM Tris-HCl pH 7.5, 150 mM NaCl); one-binding-site model
Assay conditions: both partners purified
Property name: Kd (µM)
I only need the number, in µM, no unit after it.

Retrieve Kd measured for SDEDHNIFDDEFDAANDETFGGGLDNIGENAELENYAT (PATR-1 (Pat1 ortholog), C. elegans, residues 30-67; Printed with free NH2 and COOH ends; also called PATR1_30-67^WT; CePATR-1 peptide; source: synthetic peptide (GL Biochem, Shanghai)) [PATR-1 peptide (CePATR-1_(30–67))] and print it. 2.13
